These entries and their values trace back to paper PMC12136788.

Form field: binding signal (one value per entry).
# test.system: T1, UNK ZnF1-3 (human, UniProt Q9C0B0 31-174)
# T1 sequence: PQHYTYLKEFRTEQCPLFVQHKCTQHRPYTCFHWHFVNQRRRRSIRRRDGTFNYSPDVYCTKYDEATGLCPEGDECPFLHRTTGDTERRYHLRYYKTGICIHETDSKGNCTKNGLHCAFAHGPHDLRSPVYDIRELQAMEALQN
# experimental.details: nsRBNS (natural sequence RNA bind-n-seq); RBNS binding buffer (assumed for nsRBNS): 25 mM Tris pH 7.5, 150 mM KCl, 3 mM MgCl2, 0.01% Triton X-100, 500 ug/ml BSA, 20 U/ml SUPERase-In, 4 C; UNK is unkempt and MSI1 is Musashi-1; names of the RNAs are library labels; protein concentration not given here; high values mean tight binding
In all, about 24,000 sequences were measured (“enrichment r”: median about 0.99, highest 2% from about 3.7 on). This excerpt belongs to a sample that is enriched for the highest values.

binder: chr14:76904430:76904431:+_ENSMUSG00000022010_ENSMUST00000022587|mus_mus|mus_mus_mus_hu_True|68_68 (ssRNA) RNA: GGGAGUUCUACAGUCCGACGAUCUGCAGCCAAAAACACCCUCGUGGAAAAAAAGAGGGAACACCAGCAGCCUGGUUUAAGCUAGAUAAAAUCUUCUGGCUUUCCGCAGCCCAGGGAGAAACAGAAAACGGCAGCCCUAAUUUACAACAGAGGAUUGAGCAUCA
units: enrichment R
binding signal: 2.29
//
binder: chr14:76904430:76904431:+_ENSMUSG00000022010_ENSMUST00000022587|mus_mus|mus_mus_mus_hu_True|38_98 (ssRNA) RNA: GGGAGUUCUACAGUCCGACGAUCUGCAGCCAAAAACAGAGAGAGGGAAAAAAAGAGGGAACACCAGCAGCCUUGUAUAAGCUAGAUAAAAUCUUCUAGCUGUCUGCAGCCCAGGGAGAAACAGAAAACGGCAGCCCUAAUUUACAACAGAGGAUUGAGCAUCA
units: enrichment R
binding signal: 4.97
//
binder: chr10:98281081:98281082:-_ENSG00000077147_ENST00000371142|hu_mus|motif|central (ssRNA) RNA: GGGAGUUCUACAGUCCGACGAUCAUCGCAAUACAGUCCCCCAGUCAGUCUGUACAUCCAAAUGCAUCCAGGAACCGGCACCGGCGCGACAUUAUUAAUGUUAUAUACAUUUAUUGCCCCCCUUGUUUUGUUUAAUAAUUUCUUCAACAGAGGAUUGAGCAUCA
units: enrichment R
binding signal: 1.36
